Reported values of % increase CD34+CD15− (cell counts) for individual entries
test system: primary human AML cells; experiment: Primary screen: differentiation of primary human AML cells in vitro (CD34/CD15, HTS flow cytometry); conditions: compared to DMSO
Output spec: scalar in %, unitless text.

Answered examples (3):
COc1ccc(C2CC(=O)c3ccc(OC)cc3O2)cc1 (stereo not drawn) [UM0120851, Liquiritigenin dimethylether]; 59.21
COc1c(O)cc2oc(-c3ccc(O)c(O)c3)cc(=O)c2c1O [UM0119305, 6-Methoxyluteolin]; 40.01
CC(=O)c1ccc2c(c1)N(CCCN(C)C)c1ccccc1S2.O=C(O)/C=C\C(=O)O [UM0118758, Acetopromazine maleate salt]; 41.15

# input Identify the measured % increase CD34+CD15− (cell counts) of CO[C@H]1C[C@@H]2CC[C@@H](C)[C@@](O)(O2)C(=O)C(=O)N2CCCC[C@H]2C(=O)O[C@H]([C@H](C)C[C@@H]2CC[C@@H](O)[C@H](OC)C2)CC(=O)[C@H](C)/C=C(\C)[C@@H](O)[C@@H](OC)C(=O)[C@H](C)C[C@H](C)/C=C/C=C/C=C/1C [UM0119219, Rapamycin] for primary human AML cells.
# output −44.01

# input Item: COC(=O)/C(C)=C\CC12OC(C)(C)C3CC(C=C4C(=O)c5c(OC)c6c(c(CC=C(C)C)c5OC431)OC(C)(CCC=C(C)C)C=C6)C2=O (stereo not drawn) [UM0120889, Dimethyl gambogate]
# output −48.79

# input Item: COc1ccc(-c2oc3cc(O)cc(O)c3c(=O)c2O)cc1 [UM0119298, Kaempferide]
# output 75.15

# input Item: O[C@H]1[C@H]2[C@H](O)CCCN2C[C@H]1O [UM0119223, Swainsonine]
# output −22.20

# input Item: Oc1cc(O)cc(/C=C/c2ccccc2)c1 [UM0120964, Pinosylvin]
# output 39.69

# input Item: C[C@@H]1O[C@@H](O[C@H]2[C@H](Oc3cc(O)c4c(=O)c(O)c(-c5ccc(O)cc5)oc4c3)O[C@H](CO)[C@@H](O)[C@@H]2O)[C@H](O)[C@H](O)[C@H]1O [UM0119289, Kaempferol-7-Neohesperidoside]
# output 72.47

# input Item: O=c1c2ccccc2oc2ccccc12 [UM0120986, Xanthone]
# output 86.26

# input Item: COC(=O)c1ccc2c(c1)[nH]c1ncnc(NCCCN3CCCCC3)c12 [UM0125729]
# output 63.00

# input Item: CC(C)=CCc1c(O)cc2oc(C)cc(=O)c2c1O [UM0121217, Peucenin]
# output 94.61
